Experiment: chemical genetic growth profiling, strain panel (AID 1159580);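 note: tested at 20 µM; growth read once vehicle control cultures reached saturation at 30 °C; lower values mean less growth of the strain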
Conditions: S. cerevisiae deletion strains, growth OD, locus YLR262C, strain YPT6 (second series)
The campaign covered roughly 5,500 compounds. About 2,000 (36%) were called active. Another 18% or so got no clear call; they are omitted. Cut-off read from the data, not from the text of the source: active = normalized growth mostly below about 0.91 (no sharp cut-off); inconclusive = no clear call, values can overlap the other calls; inactive = mostly above about 0.92. The list shows a part of the results.
Outcomes: active, inactive

Compound	Category label
CCOC(=O)c1c(C)c(Cl)c(O)c(Cl)c1O	active
CN1CCC(=C2c3ccccc3Sc3ccccc32)CC1	inactive
CCCCCCCCCCCCCCCC(=O)OC/C=C(C)/C=C/C=C(C)/C=C/C1=C(C)CCCC1(C)C	inactive
CC(=O)OCC[N+](C)(C)C	active
S=c1nc[nH]c2nc[nH]c12	inactive
Cc1cc(O)c(C=O)c(O)c1C(=O)O	inactive
CC(=O)O[C@@H]1C[C@@]2(C)C(CC[C@@H]2C(C)=O)C2CCC3=CC(=O)CC[C@]3(C)C21 (some centres undefined)	inactive
CC(=O)OCC(=O)[C@H]1CCC2C3CCC4=CC(=O)CC[C@]4(C)C3CC[C@@]21C (some centres undefined)	inactive
C[N+](C)(C)CCOC(N)=O	inactive
CN1CCCN=C1COC(=O)C(O)(c1ccccc1)C1CCCCC1 (centres undefined)	inactive
CC1=C(/C=C/C(C)=C/C=C/C(C)=C/C=C/C=C(C)/C=C/C=C(C)/C=C/C2=C(C)C(=O)C(O)CC2(C)C)C(C)(C)CC(O)C1=O (centres undefined)	inactive
COc1cc(NS(=O)(=O)c2ccc(N)cc2)nc(OC)n1	inactive
COc1cc(O)c(C(=O)/C=C/c2ccccc2)c(OC)c1	active
CC1CC2C3CCC4=CC(=O)C=C[C@]4(C)[C@@]3(F)[C@@H](O)C[C@]2(C)[C@@]1(O)C(=O)CO (some centres undefined)	inactive
O=C(O)C1(O)C[C@@H](O)C(O)[C@H](O)C1 (some centres undefined)	inactive
CC(=O)OCC(=O)[C@@]1(O)CCC2C3CCC4=CC(=O)CC[C@]4(C)C3C(=O)C[C@@]21C (some centres undefined)	inactive
Cc1cc(O)c(C)c(O)c1C(=O)O	inactive
CCC(=O)O[C@H]1[C@H](O[C@@H]2[C@@H](C)[C@H](O[C@H]3C[C@@](C)(OC)[C@@H](O)[C@H](C)O3)[C@@H](C)C(=O)O[C@H](CC)[C@@](C)(O)[C@H](O)[C@@H](C)C(=O)[C@H](C)C[C@@]2(C)O)O[C@H](C)C[C@@H]1N(C)C	inactive
NCC1CCC(C(=O)O)CC1 (centres undefined)	inactive
ClC1=C(Cl)C2(Cl)C3C(Cl)C=CC3C1(Cl)C2(Cl)Cl (centres undefined)	inactive
CN(C)CC/C=C1\c2ccccc2Sc2ccc(Cl)cc21	inactive
CCN(CC)CCNC(=O)c1cc(Br)c(N)cc1OC	inactive
CN1CCc2cc3c(cc2[C@H]1C1OC(=O)c2c1ccc1c2OCO1)OCO3 (some centres undefined)	inactive
c1ccc(N=Nc2ccccc2)cc1	inactive
